Target: T1, Der p 2 (house dust mite, UniProt P49278 18-146)
T1 construct: Also used oligonucleotide-barcoded for cell staining
T1 sequence (looked up): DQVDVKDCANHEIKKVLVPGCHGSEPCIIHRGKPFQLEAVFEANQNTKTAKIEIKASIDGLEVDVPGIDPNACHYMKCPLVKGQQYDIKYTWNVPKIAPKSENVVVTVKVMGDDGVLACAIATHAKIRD
Test: barcode rank score against control Ole e 1
reported-property: Derp2_ab_rank
# output: bare number, no unit

Check out these entries, answers already filled in.
IgE mAb 21_2 (antibody, V domains shown, IgE (IGHE, IGKC) from HDM-exposed mouse, LymphNode) VH: QVQLQQSGPELVKPGASVKISCKAPGNAFSYSWMNWVKQRPGKGLEWVGRIYPGDGDTNYNGKFMGKATLTADKSSNTAYIQLSSLTSEDSAVYFCARSGGGTLYWYFDVWGTGTTVTVSS VL: DIVMTQSPSSLALSVGQKVTMNCRSSQSLLNSFNQKNYLAWFQQKPGQSPRLLIYFASTRESGVPDRFIGSGSGTDFTLTISSVQAEDLADYFCQQHYNTPLTFGAGTTLELK
0.412
IgE mAb 17_2 (antibody, V domains shown, IgE (IGHE, IGKC) from HDM-exposed mouse, LymphNode) VH: EVHLQQSGPDLVKPGASVMISCQASGYSFTAYYINWVKQSPEKSLEWIGEINPGSGGVIYNRKFEAKATLIVDKSSNTAFMLLTRLTSEDSAIYYCARKGFYQFDYWGQGTTLTVSS VL: SVVMTQIPKFLVVSAGDRVTITCKASQSVNDGVFWYQQKTGQSPKLVIYHTSNRYTGVSDRFTGSGYGTEFTFTISAVQSEDLAIYFCQQDYTSPLTFGGGTRLEIK
0.336
IgE mAb 13_2 (antibody, V domains shown, IgE (IGHE, IGKC) from HDM-exposed mouse, LymphNode) VH: EVQLQQSGPELVKPGASVKISCKASGYTFTDYYMNWVKQSHGKSLEWIGDINPNNGGTSYNQKFKGKATLTVDKSSSTAYMELRSLTSEDSAVYYCAYGPPRGPPWFAYWGQGTLVTVSA VL: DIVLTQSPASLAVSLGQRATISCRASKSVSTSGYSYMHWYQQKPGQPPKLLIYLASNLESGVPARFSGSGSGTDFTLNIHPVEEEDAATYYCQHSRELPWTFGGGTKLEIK
0.858
IgE mAb 1_2 (antibody, V domains shown, IgE (IGHE, IGKC) from HDM-exposed mouse, BoneMarrow) VH: QIQLVQSGPELKKPGETVKISCKASGYTFTTYGMSWVKQAPGKGLKWMGWINTYSGVPTYADDFKGRFVFSLETSASTAYLQINNLKNEDTATYFCARAYYYGSSYLIWYFDVWGTGTTVTVSS VL: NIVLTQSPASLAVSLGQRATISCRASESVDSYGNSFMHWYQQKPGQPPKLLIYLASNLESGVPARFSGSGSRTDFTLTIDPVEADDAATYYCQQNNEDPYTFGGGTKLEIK
1
IgE mAb 8_2 (antibody, V domains shown, IgE (IGHE, IGKC) from HDM-exposed mouse, BoneMarrow) VH: QVLLKESGPGLVAPSQSLSITCTVSGFSLTSYGVSWVRQPPGKGLEWLGVIWGDGNTDYHSALISRLSIRKDNSKSQVFLKLNSLQTDDTATYYCAIGSPFAYWGQGTLVTVSA VL: DVLMTQTPLSLPVSLGDQVSISCRSSQNIVHSTGNTYLEWYLQKPGQSPKLLIFKVSNRLSGVPDRFSGSGSGTDFTLNISRVEAADLGIYSCFQGSHVPFTFGSGTKLEIK
0.837

Now turn to the next binder.
Quick note, Derp2_ab_rank for IgE mAb 12_2 (antibody, V domains shown) VH: QAYLQQSGAELVRPGASVKMSCKASGYTFISYNMHWVKQTRRQGLEWIGAIYPGNGDTSYNQKFKGKATLTVDKSSSTAYMQLSSLTSEDSAVYFCARWDYYGSSYGAYWGQGTLVTVSA VL: DIQMTQSPASLSVSVGETVTITCRASENIYSNLAWYQQKQGKSPQLLVYAATNLADGVPSRFSGSGSGTQYSLKINSLQSEDFGSYYCQHFWGTPWTFGGGTKLEIK landed at 0.453
